# credit: the supplement of paper PMC8612539

Exercise: for every item that follows, state its recorded minimum inhibitory concentration.
# Test system: Pasteurella multocida
# method_summary: minimum inhibitory concentration (MIC)
# test_settings: isolate (source animal id): 136

Example cases with answers are listed next.
NC[C@@H]1O[C@H](O[C@H]2[C@@H](O)[C@H](O[C@@H]3[C@@H](O)[C@H](N)C[C@H](N)[C@H]3O[C@H]3O[C@H](CN)[C@@H](O)[C@H](O)[C@H]3N)O[C@@H]2CO)[C@H](N)[C@@H](O)[C@@H]1O	> 32 µg/mL
CC1(C)S[C@@H]2[C@H](NC(=O)Cc3ccccc3)C(=O)N2[C@H]1C(=O)O	0.25 µg/mL
CCCN1C[C@H](C)[C@@H](O)[C@](C)(O)[C@@H](CC)OC(=O)[C@H](C)[C@@H](O[C@H]2C[C@@](C)(OC)[C@@H](O)[C@H](C)O2)[C@H](C)[C@@H](O[C@@H]2O[C@H](C)C[C@H](N(C)C)[C@H]2O)[C@](C)(O)C[C@H]1C	> 8 µg/mL
CN1C[C@@H]2C[C@H]1CN2c1cc2c(cc1F)c(=O)c(C(=O)O)cn2C1CC1	≤ 0.12 µg/mL
COc1cc(NS(=O)(=O)c2ccc(N)cc2)nc(OC)n1	> 256 µg/mL

Fill blank: measured minimum inhibitory concentration of the compound CO/N=C(\C(=O)N[C@@H]1C(=O)N2C(C(=O)O)=C(CSC(=O)c3ccco3)CS[C@H]12)c1csc(N)n1 is ____.
≤ 0.25 µg/mL

====

# Tested on: Enterococcus spp.
# method_summary: minimum inhibitory concentration (MIC)
# test_settings: isolate (source animal id): 168
Task for the reader: assign each of the following compounds its reported minimum inhibitory concentration.
Give bare numbers, in µg/mL.

CN[C@@H]1[C@H](O)[C@H](NC)[C@H]2O[C@@]3(O)C(=O)C[C@@H](C)O[C@H]3O[C@@H]2[C@H]1O	64

Respectfully, I request minimum inhibitory concentration for each entry included below.
1. CCN1CCN(c2cc3c(cc2F)c(=O)c(C(=O)O)cn3C2CC2)CC1
2. CC[C@H]1OC(=O)C[C@@H](O)[C@H](C)[C@@H](O[C@@H]2O[C@H](C)[C@@H](O[C@H]3C[C@@](C)(O)[C@@H](O)[C@H](C)O3)[C@H](N(C)C)[C@H]2O)[C@@H](CC=O)C[C@@H](C)C(=O)/C=C/C(C)=C/[C@@H]1CO[C@@H]1O[C@H](C)[C@@H](O)[C@@H](OC)[C@H]1OC
3. CS(=O)(=O)c1ccc([C@@H](O)[C@@H](CF)NC(=O)C(Cl)Cl)cc1

1. 0.5
2. 2
3. 2

====

# Tested on: Pasteurella multocida
# method_summary: minimum inhibitory concentration (MIC)
# test_settings: isolate (source animal id): 164
I'd appreciate it if you could supply minimum inhibitory concentration values for the items below.
One number for each entry, in µg/mL.

CNC(C)C1CCC(N)C(OC2C(N)CC(N)C(OC3OCC(C)(O)C(NC)C3O)C2O)O1 (stereo not given)	4

The record that follows has no minimum inhibitory concentration shown yet.
Notebook entry, Pasteurella multocida assay: minimum inhibitory concentration of CCCNC[C@]1(O)[C@H](C)O[C@@H](O[C@H]2[C@H](C)[C@@H](O[C@@H]3O[C@H](C)C[C@H](N(C)C)[C@H]3O)[C@](C)(O)C[C@@H](C)CN[C@H](C)[C@@H](O)[C@](C)(O)[C@@H](CC)OC(=O)[C@@H]2C)C[C@@]1(C)OC = ?
64
